# Test system: NCI-H226 lung
# Assay remarks: NCI-60 one-dose screen, 48 h (100 = growth as untreated, 0 = no growth, -100 = all killed)
# Condition details: 10 µM unless noted
About 83,000 compounds went through this panel and 20% of them were active in at least one assay; those are over-represented in the sample as a whole.
The following molecules are shown together with reported growth values.
I only need the number, in %, no unit after it.

Below, 5 molecules whose answers are already recorded.
Molecule	Result number
O=C1NC(=Nc2ccc(O)cc2)S/C1=C\c1cccc(Cl)c1	102
COc1ccc(SC2c3ccc(C)cc3Oc3nc(N)c(C#N)c(N)c32)cc1 (stereo not drawn)	-63.9
COc1ccc(Nc2c3c4c(cccc4[nH]c2=O)C(=O)c2ccccc2-3)cc1	17
O=C1c2cc3c(cc2-c2c1c1ccc(F)cc1c(=O)n2C[C@H](O)[C@H](O)[C@H](O)CO)OCO3	-34.7
COC(=O)[C@]12CCC(C)(C)C[C@H]1[C@H]1C(=O)C[C@@H]3[C@@]4(C)c5c([nH]c6ccccc6c5=O)C(C)(C)[C@@H]4CC[C@@]3(C)[C@]1(C)CC2	65.7

Challenge: Find the measured growth of `COc1cccc(-c2nc(SCC(=O)Nc3ccc(C(=O)/C=C/c4ccc(OC)c(OC)c4)cc3)[nH]c(=O)c2C#N)c1` and report it.
Response given: 105

Challenge: Supply recorded growth for `Nc1ccc(-c2cc3c(NCc4ccccc4)ncnc3s2)cc1` here.
Response given: 65.9

Challenge: Assign growth to the following record: `O=c1nc2oc3ccc4ccccc4c3cc-2s1`
Response given: 37.5

Challenge: Find the measured growth of `COc1ccc(C(=O)COc2cccc(/C=C3\CSc4ccccc4C3=O)c2)cc1` and report it.
Response given: 79.9

Challenge: Query growth for `N#CN1CC[C@H](C(=O)Nc2cc3cc(C(N)=O)ccc3cn2)C1`
Response given: -10

###

# Tested on: HT29 colon
# Assay remarks: NCI-60 one-dose screen, 48 h
# Condition details: 10 µM unless noted
About 83,000 compounds went through this panel and 20% of them were active in at least one assay; those are over-represented in the sample as a whole. The source made the active and inactive calls. How the source made its calls: active means growth percent below 10; inactive means the rest.
Please state which outcome applies, choosing from true = active, false = inactive

Study these solved cases before continuing.
Chemical smiles	Class
CCCn1c(=O)[nH]c(N)c([C@H]2c3ccccc3Oc3[nH]c(=O)n(CCC)c(=O)c32)c1=O	false
CN1CCN(CCCOc2cccc3nc(Nc4cc(Cl)cc(Cl)c4)ccc23)CC1	true
CC(=O)O[C@H]1CC[C@]2(C)[C@H]3CC=C4[C@@H]5CC(C)(C)CC[C@]5(C(=O)NCCNCCN)CC[C@@]4(C)[C@]3(C)CC[C@H]2C1(C)C	true
O=C(Nc1ccc(Cl)cc1)c1cc2cc(F)ccc2cc1O	false
O=[N+]([O-])c1ccc(Nc2nc(NCCN3CCOCC3)ncc2[N+](=O)[O-])cc1	false
CN(C)c1ccc(N=Nc2ccccn2)c(O)c1	false

Challenge: Outcome logged for `Cn1ncc2c(=O)nc3c(-c4ccccc4)n[nH]n3c21` in this assay:
Response given: false

Challenge: Tell me the assay call for `Oc1cccc2ccc(N/N=C/c3cc(CN4CCOCC4)c(O)c4ncccc34)nc12` please.
Response given: false

Challenge: Dear colleague, could you share the recorded outcome for `COc1cccc(-c2nc3sccn3c2-c2ccnc(NCCNS(=O)(=O)c3ccc(F)cc3)c2)c1` when you have a moment?
Response given: false

###

# Tested on: MOLT-4 leukemia
# Assay remarks: NCI-60 one-dose screen, 48 h
# Condition details: 10 µM unless noted
About 83,000 compounds went through this panel and 20% of them were active in at least one assay; those are over-represented in the sample as a whole. The source made the active and inactive calls. How the source made its calls: active means growth percent below 10; inactive means the rest.
Allowed answers: true (active), false (inactive)

Compound	Class
COc1cc2nc(N3CCCC3)nc(NCCc3ccccc3)c2cc1OC	true
Cc1ccc2c(C(C[N+](=O)[O-])c3ccccc3)c(-c3ccccc3)[nH]c2c1 (stereo not given)	false
COc1ccc(NC2=C(Sc3nc(C)cc(C)n3)C(=O)N(Cc3ccccc3)C2=O)cc1Cl	false
O=C(CN(C(=O)Cn1c(=O)n2nnnc2c2ccccc21)c1ccccc1C(F)(F)F)Nc1ccc(C(F)(F)F)cc1	false
Cc1nc2c3c(-c4ccccc4)c(-c4ccccc4)oc3ncn2n1	false
COc1cc(C2CC(=O)c3ccccc3N2)cc(OC)c1OC (stereo not given)	false
Cc1cc(Nc2ccc(C)c(Cl)c2)n2nc(C(F)(F)F)nc2n1	false
CCc1nnc(CNc2ccc(Cl)cc2)o1	false

Challenge: Given `CCOc1nc(-c2ccccc2)cc2c(O)c(C(=O)N/N=C/c3ccc(O)cc3O)[nH]c(=O)c12` , state the outcome it received in this test.
Response given: false

Challenge: Call for entry `CC(=O)c1cc2c(N)c(C(=O)Nc3ccccc3)sc2nc1C` :
Response given: false

###

# Test system: ACHN renal
# Assay remarks: NCI-60 one-dose screen, 48 h
# Condition details: 10 µM unless noted
The panel holds about 83,000 compounds, 20% with a hit somewhere; the sample as a whole holds those more often. Calls of active or inactive are those of the source. The calls were made as follows: active = growth percent below 10; inactive = the rest.
Your response should consist of one outcome taken from class 1 (active), class 0 (inactive)

Compound	Subject of test	Class
CSc1ccc(SC2c3ccc(C)cc3Oc3nc(N)c(C#N)c(N)c32)cc1 (centres undefined)	ACHN renal	class 1

Challenge: Could you kindly confirm the outcome this assay logged for `O=C(N/N=C/c1c[nH]c2ccccc12)c1cc(-c2ccccc2)on1` ?
Response given: class 0

Challenge: Record lookup: outcome of this test for `O=c1oc2c(C(F)(F)F)cccc2cc1-c1csc(Nc2ccc(OCCF)cc2)n1` ?
Response given: class 0

Challenge: How did this test come out for `CC[C@]1(O)C[C@@H]2CN(CCc3c([nH]c4ccccc34)[C@@](C(=O)OC)(c3cc4c(cc3OC)N(C)[C@H]3[C@@](O)(C(N)=O)[C@H](O)[C@]5(CC)[C@@H]6C[C@@H]6CN6CC[C@]43[C@@H]65)C2)C1` ?
Response given: class 0

###

# Tested on: KM12 colon
# Assay remarks: NCI-60 one-dose screen, 48 h
# Condition details: 10 µM unless noted
# Procedure: Growth inhibition of the KM12 human tumor cell line is measured as a screen for anti-cancer activity. Cells are grown in 96 well plates and exposed to the test compound for 48 hours. Compounds are tested at a single concentration, which is 10^-5 M for most compounds. The reported endpoint is percent growth (GI% or GIPRCNT), where numbers from 0 - 100% represent growth inhibition, and numbers from -100% - 0 represent cell death. For example, a value of 40 represents 60% growth inhibition. […]
Compounds without any hit were thinned out: in the full panel of roughly 83,000, 20% have a hit. Active and inactive are the calls of the source. Rule for the calls: active = growth percent below 10; inactive = the rest.
Answer with one of the outcomes active, inactive

Check out these entries, answers already filled in.
Compound	Class
CCNC(=O)Oc1ccc(/C(=C(\C)c2ccc(Cl)cc2)c2ccc(OCCN(CC)CC)cc2)cc1	inactive
COc1ccc(/C=C\c2cc(OC)c(OC)c(OC)c2)cc1OC(=O)c1cccc(Cn2cc(CCOC(=O)[C@H](N)Cc3cn(C)c4ccccc34)nn2)c1	active
CC[C@H]1OC(=O)[C@H](C)[C@@H](O[C@H]2C[C@@](C)(OC)[C@@H](O)[C@H](C)O2)[C@H](C)[C@@H](O[C@@H]2O[C@H](C)C[C@H](N(C)C)[C@H]2O)[C@](C)(O)C[C@H](C)CN(C)[C@H](C)[C@@H](O)[C@]1(C)O	inactive
CC1CCNC(C)C1 (configuration not stated)	inactive
O=C(CN(C(=O)Cn1c(=O)n2nnnc2c2ccccc21)c1ccccc1C(F)(F)F)Nc1ccc(C(F)(F)F)cc1	inactive

Challenge: How did this test come out for `O=C1c2cc3c(cc2-c2c1c1ccc(Cl)cc1c(=O)n2CCCN1CCOCC1)OCO3` ?
Response given: inactive

Challenge: For this compound, state the assay outcome: `FC(F)(F)Oc1ccc2nc3nc4ccc[nH]c4cc3c2c1`
Response given: inactive

Challenge: Look up the recorded call for `O=C(Cn1cccc(Nc2ccccc2)c1=O)Nc1ccccc1` in this test.
Response given: inactive

Challenge: Per the records of this test, what outcome belongs to `CN(C)S(=O)(=O)c1cccc(-c2nc3sc4c(c3c(=O)[nH]2)CCCC4)c1` ?
Response given: inactive

###

# System: IGROV1 ovarian
# Assay remarks: NCI-60 one-dose screen, 48 h (100 = growth as untreated, 0 = no growth, -100 = all killed)
# Condition details: 10 µM unless noted
This is part of a sample that, as a whole, favours compounds with a hit. Of some 83,000 tested, about 20% had one in any assay. Calls of active or inactive are those of the source. Rule for the calls: active = growth percent below 10; inactive = the rest.
growth: recorded values

As a guide, the following entries are already answered.
Chemical smiles	growth
Nc1ccc(-c2cc3c(Nc4ccc(Oc5cccc(C(F)(F)F)c5)c(Cl)c4)ncnc3s2)cc1	59.9% (inactive)
COc1ccc(S(=O)(=O)N2CCCCC2)cc1NC(=O)c1[nH]c(C)c2c1CCCCC2=O	15.3% (inactive)
Oc1cccc2ccc(N/N=C/c3cc(CN4CCOCC4)c(O)c4ncccc34)nc12	18.7% (inactive)
O=C1c2cc3c(cc2-c2c1c1ccc(Cl)cc1c(=O)n2CCCN1CCOCC1)OCO3	82.6% (inactive)

Turning now to a further record.
Challenge: State the measured growth (IGROV1 ovarian) of `C(=C\c1nccc2c1[nH]c1ccccc12)/c1ccccc1`
Response given: -15.9% (active)

Values from PubChem BioAssay (NCI)
